Listed here are compounds together with their documented viability, T/C.
# Tested on: 435261-313-R-J1-PDC complex spheroid viability;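 also: spheroids exposed to the agents for seven days before readout; percent of vehicle control viability with DMSO wells as 100%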
# experiment: Anticancer human tumor 435261-313-R-J1-PDC patient-derived colon adenocarcinoma cell line growth inhibition [GQUAD]
# condition context: second compound 0.1 µM; first compound 0.0316 µM; hits give low values
# output: bare number, implied unit %

COc1cc(C2c3cc4c(cc3C(OC3OC5COC(C)OC5C(O)C3O)C3COC(=O)C23)OCO4)cc(OC)c1O (stereo not given) + CN(C)c1ccc(Nc2c3ccc(NC(=O)CCN4CCCC4)cc3nc3cc(NC(=O)CCN4CCCC4)ccc23)cc1 ... 81.8

viability, T/C reported for this compound CC1COCCN1c1cc(C2(S(C)(=N)=O)CC2)nc(-c2ccnc3[nH]ccc23)n1 (stereo not given) + Cc1cnc(CNC(=O)c2c(=O)c3ccc(N4CCCN(C)CC4)nc3n3c2sc2ccccc23)cn1 : 41.4

viability, T/C reported for this compound O=c1[nH]cc(F)c(=O)[nH]1 + CN(C)c1ccc(Nc2c3ccc(NC(=O)CCN4CCCC4)cc3nc3cc(NC(=O)CCN4CCCC4)ccc23)cc1 : 117

viability, T/C reported for this compound COc1ccc([C@@H](O)c2cc(-c3ncnc4cc(N5CCOCC5)ccc34)c(F)cc2Cl)nn1 + Cc1cnc(CNC(=O)c2c(=O)c3ccc(N4CCCN(C)CC4)nc3n3c2sc2ccccc23)cn1 : 49.8

viability, T/C reported for this compound CC[C@@]1(O)C(=O)OCc2c1cc1n(c2=O)Cc2cc3c(CN(C)C)c(O)ccc3nc2-1 + Cc1[nH]c2ccc(F)cc2c1-c1nc2c3cccnc3c3ncccc3c2[nH]1 : 73.6

viability, T/C reported for this compound COc1ccc([C@@H](O)c2cc(-c3ncnc4cc(N5CCOCC5)ccc34)c(F)cc2Cl)nn1 + Cc1[nH]c2ccc(F)cc2c1-c1nc2c3cccnc3c3ncccc3c2[nH]1 : 99

viability, T/C reported for this compound C=CCn1c(=O)c2cnc(Nc3ccc(N4CCN(C)CC4)cc3)nc2n1-c1cccc(C(C)(C)O)n1 + Cc1cnc(CNC(=O)c2c(=O)c3ccc(N4CCCN(C)CC4)nc3n3c2sc2ccccc23)cn1 : 61.3

viability, T/C reported for this compound CC1COCCN1c1cc(C2(O)CC3CCC(C2)O3)c2cnn(-c3ccn[nH]3)c2n1 (stereo not given) + CN(C)c1ccc(Nc2c3ccc(NC(=O)CCN4CCCC4)cc3nc3cc(NC(=O)CCN4CCCC4)ccc23)cc1 : 71.3

viability, T/C reported for this compound CC(=O)O[C@H]1C(=O)[C@@]2(C)[C@H]([C@H](OC(=O)c3ccccc3)[C@]3(O)C[C@H](OC(=O)[C@H](O)[C@@H](NC(=O)c4ccccc4)c4ccccc4)C(C)=C1C3(C)C)[C@]1(OC(C)=O)CO[C@@H]1C[C@@H]2O + CN(C)c1ccc(Nc2c3ccc(NC(=O)CCN4CCCC4)cc3nc3cc(NC(=O)CCN4CCCC4)ccc23)cc1 : 71.9

viability, T/C reported for this compound O=c1[nH]cc(F)c(=O)[nH]1 + Cc1cnc(CNC(=O)c2c(=O)c3ccc(N4CCCN(C)CC4)nc3n3c2sc2ccccc23)cn1 : 68.8

viability, T/C reported for this compound CCc1c2c(nc3ccc(O)cc13)-c1cc3c(c(=O)n1C2)COC(=O)[C@]3(O)CC + Cc1[nH]c2ccc(F)cc2c1-c1nc2c3cccnc3c3ncccc3c2[nH]1 : 49.4

viability, T/C reported for this compound COc1cccc2c1C(=O)c1c(O)c3c(c(O)c1C2=O)CC(O)(C(=O)CO)CC3OC1CC(N)C(O)C(C)O1 (stereo not given) + CN(C)c1ccc(Nc2c3ccc(NC(=O)CCN4CCCC4)cc3nc3cc(NC(=O)CCN4CCCC4)ccc23)cc1 : 73.4

viability, T/C reported for this compound CCCS(=O)(=O)Nc1ccc(F)c(C(=O)c2c[nH]c3ncc(-c4ccc(Cl)cc4)cc23)c1F + Cc1[nH]c2ccc(F)cc2c1-c1nc2c3cccnc3c3ncccc3c2[nH]1 : 60.5

viability, T/C reported for this compound COc1cccc2c1C(=O)c1c(O)c3c(c(O)c1C2=O)CC(O)(C(=O)CO)CC3OC1CC(N)C(O)C(C)O1 (stereo not given) + Cc1cnc(CNC(=O)c2c(=O)c3ccc(N4CCCN(C)CC4)nc3n3c2sc2ccccc23)cn1 : 64.9

viability, T/C reported for this compound C=CC(=O)N1CCN(c2nc(=O)n(-c3c(C)ccnc3C(C)C)c3nc(-c4c(O)cccc4F)c(F)cc23)C(C)C1 (stereo not given) + Cc1[nH]c2ccc(F)cc2c1-c1nc2c3cccnc3c3ncccc3c2[nH]1 : 85

viability, T/C reported for this compound C=CCn1c(=O)c2cnc(Nc3ccc(N4CCN(C)CC4)cc3)nc2n1-c1cccc(C(C)(C)O)n1 + CN(C)c1ccc(Nc2c3ccc(NC(=O)CCN4CCCC4)cc3nc3cc(NC(=O)CCN4CCCC4)ccc23)cc1 : 96.4

viability, T/C reported for this compound CC1COCCN1c1cc(C2(O)CC3CCC(C2)O3)c2cnn(-c3ccn[nH]3)c2n1 (stereo not given) + Cc1cnc(CNC(=O)c2c(=O)c3ccc(N4CCCN(C)CC4)nc3n3c2sc2ccccc23)cn1 : 49.5
